Target: PPAR Gamma (Homo sapiens, UniProt P37231)
Sequence (P37231 1-505): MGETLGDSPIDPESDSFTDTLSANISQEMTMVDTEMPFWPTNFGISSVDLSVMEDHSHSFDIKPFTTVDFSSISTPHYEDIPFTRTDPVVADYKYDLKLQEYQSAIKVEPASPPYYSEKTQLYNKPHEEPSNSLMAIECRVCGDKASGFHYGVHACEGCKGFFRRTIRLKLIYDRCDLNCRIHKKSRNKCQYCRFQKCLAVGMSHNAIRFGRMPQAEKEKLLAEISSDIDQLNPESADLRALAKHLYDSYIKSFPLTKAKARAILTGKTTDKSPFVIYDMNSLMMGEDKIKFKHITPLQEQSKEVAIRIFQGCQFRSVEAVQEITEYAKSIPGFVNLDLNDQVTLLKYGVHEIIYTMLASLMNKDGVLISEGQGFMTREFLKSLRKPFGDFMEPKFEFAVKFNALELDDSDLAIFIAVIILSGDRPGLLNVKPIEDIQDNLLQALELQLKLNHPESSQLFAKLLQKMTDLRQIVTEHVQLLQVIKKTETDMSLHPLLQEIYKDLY
Assay: PathHunter NHR protein interaction / nuclear translocation agonist test, PPAR Gamma
Format: cell-based
Details: agonist mode; read-out: PPAR Gamma EC50
PROPERTY NAME: EC50

Recorded EC50, per entry:
[
  {
    "MOLECULE": "CSc1ccc(C(=O)C2CN(C(=O)Oc3ccc(Cl)cc3)CC2c2cc(C)c(OC(C)(C)C(=O)O)c(C)c2)cc1 (single isomer, unassigned) [Compound 13]",
    "ASSAY SYSTEM": "PPAR Gamma (Homo sapiens, UniProt P37231)",
    "EXPERIMENTAL RESULT": "> 250 nM"
  },
  {
    "MOLECULE": "CSc1ccc(C(=O)C2CN(C(=O)Oc3ccccc3)CC2Cc2ccc(OC(C)(C)C(=O)O)c(F)c2)cc1 (single isomer, unassigned) [Compound 78]",
    "ASSAY SYSTEM": "PPAR Gamma (Homo sapiens, UniProt P37231)",
    "EXPERIMENTAL RESULT": "> 250 nM"
  },
  {
    "MOLECULE": "CSc1ccc(C(=O)C2CN(C(=O)Oc3ccc(Cl)cc3)CC2c2cc(C)c(OC(C)(C)C(=O)O)c(C)c2)cc1 (single isomer, unassigned) [Compound 14]",
    "ASSAY SYSTEM": "PPAR Gamma (Homo sapiens, UniProt P37231)",
    "EXPERIMENTAL RESULT": "> 250 nM"
  },
  {
    "MOLECULE": "Cc1cc(CCC2CN(C(=O)Oc3ccccc3)CC2C(=O)c2ccc(F)cc2)cc(C)c1OC(C)(C)C(=O)O (single isomer, unassigned) [Compound 63]",
    "ASSAY SYSTEM": "PPAR Gamma (Homo sapiens, UniProt P37231)",
    "EXPERIMENTAL RESULT": "200 to 250 nM"
  },
  {
    "MOLECULE": "CSc1ccc(C(=O)/C=C/c2cc(C)c(OC(C)(C)C(=O)O)c(C)c2)cc1 [GFT-505, Elafibranor, reference compound]",
    "ASSAY SYSTEM": "PPAR Gamma (Homo sapiens, UniProt P37231)",
    "EXPERIMENTAL RESULT": "> 250 nM"
  }
]

If you can, please state the reported EC50 value of Cc1cc(CCC2CN(C(=O)Oc3ccccc3)CC2C(=O)c2ccc(Cl)cc2)cc(C)c1OC(C)(C)C(=O)O (single isomer, unassigned) [Compound 65] . 200 to 250 nM

Reported EC50 for Cc1cc(CCC2CN(C(=O)Oc3ccccc3)CC2C(=O)c2ccc(Cl)s2)cc(C)c1OC(C)(C)C(=O)O (single isomer, unassigned) [Compound 47] : what is it? 150 to 200 nM

Which measured EC50 value corresponds to CSc1ccc(C(=O)C2CN(C(=O)Oc3ccccc3)CC2Cc2ccc(OC(C)(C)C(=O)O)cc2)cc1 (single isomer, unassigned) [Compound 76] ? > 250 nM

Form field: reported EC50 of CSc1ccc(C(=O)[C@H]2CNC[C@@H]2CCc2cc(C)c(OC(C)(C)C(=O)O)c(C)c2)cc1 (racemic) [Compound 56] > 250 nM

====

Target: PPAR Alpha (Homo sapiens, UniProt Q07869)
Test: PathHunter NHR protein interaction / nuclear translocation agonist test, PPAR Alpha
Assay type: cell-based
Settings: agonist mode; read-out: PPAR Alpha EC50
PROPERTY NAME: EC50

[
  {
    "COMPOUND": "CSc1ccc(C(=O)C2CN(C(=O)Oc3ccccc3)CC2Cc2ccc(OC(C)(C)C(=O)O)cc2)cc1 (single isomer, unassigned)",
    "EC50": "100 to 150 nM"
  }
]

Data request, read-out EC50, for COC(=O)N1C[C@@H](C(=O)c2ccc(SC)cc2)[C@H](c2cc(C)c(OC(C)(C)C(=O)O)c(C)c2)C1 (single isomer, unassigned) [Compound 4] > 250 nM

Recorded EC50 of CSc1ccc(C(=O)C2CN(C(=O)Oc3ccc(Br)cc3)CC2c2cc(C)c(OC(C)(C)C(=O)O)c(C)c2)cc1 (stereo not drawn) , please. < 100 nM

Record request: EC50 value, item CSc1ccc(C(=O)C2CN(C(=O)Oc3ccccc3)CC2CCc2ccc(OC(C)(C)C(=O)O)c(C)c2)cc1 (single isomer, unassigned) < 100 nM

Form field: reported EC50 of CSc1ccc(C(=O)C2CN(C(=O)Oc3ccc(Cl)cc3)CC2c2cc(C)c(OC(C)(C)C(=O)O)c(C)c2)cc1 (single isomer, unassigned) [Compound 13] < 100 nM

Suppose we examine the compound CSc1ccc(C(=O)C2CN(C(=O)Oc3ccccc3)CC2CCc2ccc(OC(C)(C)C(=O)O)c(F)c2)cc1 (single isomer, unassigned) ; what EC50 value has been reported? < 100 nM

====

Readings of EC50 for the listed compounds
Target: PPAR Alpha (Homo sapiens, UniProt Q07869)
Assay: PathHunter NHR protein interaction / nuclear translocation agonist test, PPAR Alpha
Assay type: cell-based
Conditions: agonist mode; read-out: PPAR Alpha EC50

Example entries begin here.
[
  {
    "COMPOUND": "CSc1ccc(C(=O)C2CN(C(=O)Oc3ccc(Cl)cc3)CC2c2cccc(OC(C)(C)C(=O)O)c2)cc1 (single isomer, unassigned) [Compound 33]",
    "EC50": "0.2 to 0.25 µM"
  },
  {
    "COMPOUND": "CSc1ccc(C(=O)[C@H]2CN(C(=O)OCCC(C)C)C[C@@H]2CCc2cc(C)c(OC(C)(C)C(=O)O)c(C)c2)cc1 (racemic)",
    "EC50": "< 0.1 µM"
  },
  {
    "COMPOUND": "CSc1ccc(C(=O)C2CN(C(=O)c3ccccc3)CC2c2cc(C)c(OC(C)(C)C(=O)O)c(C)c2)cc1 (single isomer, unassigned) [Compound 17]",
    "EC50": "> 0.25 µM"
  },
  {
    "COMPOUND": "CSc1ccc(C(=O)[C@H]2CN(C(=O)Oc3cnn(C)c3)C[C@@H]2Cc2cc(C)c(OC(C)(C)C(=O)O)c(C)c2)cc1 (racemic)",
    "EC50": "< 0.1 µM"
  },
  {
    "COMPOUND": "CSc1ccc(C(=O)/C=C/c2cc(C)c(OC(C)(C)C(=O)O)c(C)c2)cc1 [GFT-505, Elafibranor, reference compound]",
    "EC50": "> 0.25 µM"
  }
]

Need EC50, item CSc1ccc(C(=O)C2CN(C(=O)Oc3ccc(Cl)cc3)CC2c2cc(C)c(OC(C)(C)C(=O)O)c(C)c2)cc1 (single isomer, unassigned) [Compound 14] < 0.1 µM

Look up EC50: CSc1ccc(C(=O)[C@H]2CN(C)C[C@@H]2c2cc(C)c(OC(C)(C)C(=O)O)c(C)c2)cc1 (racemic) > 0.25 µM

# lookup: EC50 of Cc1cc(CCC2CN(C(=O)Oc3ccccc3)CC2C(=O)c2ccc(Cl)cc2)cc(C)c1OC(C)(C)C(=O)O (single isomer, unassigned) [Compound 65] < 0.1 µM

====

Biological target: PPAR Alpha (Homo sapiens, UniProt Q07869)
Sequence (Q07869 1-468): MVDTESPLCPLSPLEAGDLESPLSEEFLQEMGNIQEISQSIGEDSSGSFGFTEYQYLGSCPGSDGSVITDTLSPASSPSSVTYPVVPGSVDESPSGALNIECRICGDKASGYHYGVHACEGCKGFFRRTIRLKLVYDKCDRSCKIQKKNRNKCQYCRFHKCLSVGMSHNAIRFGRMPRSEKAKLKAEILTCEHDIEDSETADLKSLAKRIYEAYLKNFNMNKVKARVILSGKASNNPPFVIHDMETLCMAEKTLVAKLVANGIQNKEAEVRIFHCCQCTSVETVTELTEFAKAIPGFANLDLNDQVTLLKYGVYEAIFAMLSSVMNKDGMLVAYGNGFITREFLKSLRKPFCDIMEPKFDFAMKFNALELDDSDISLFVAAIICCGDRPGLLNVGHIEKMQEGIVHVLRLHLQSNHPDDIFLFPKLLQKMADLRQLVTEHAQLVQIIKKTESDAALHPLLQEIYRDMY
Assay: PathHunter NHR protein interaction / nuclear translocation agonist test, PPAR Alpha
Format: cell-based
Conditions: read-out: PPAR Alpha Maximum Activation Response %
PROPERTY NAME: Emax

[
  {
    "MOLECULE": "CSc1ccc(C(=O)[C@H]2CN(C(=O)Oc3ccc(C)nc3)C[C@@H]2Cc2cc(C)c(OC(C)(C)C(=O)O)c(C)c2)cc1 (racemic)",
    "Emax": "80 to 100%"
  },
  {
    "MOLECULE": "CSc1ccc(C(=O)[C@H]2CN(C(=O)Oc3cnn(C)c3)C[C@@H]2Cc2cc(C)c(OC(C)(C)C(=O)O)c(C)c2)cc1 (racemic)",
    "Emax": "50 to 80%"
  },
  {
    "MOLECULE": "CSc1ccc(C(=O)C2CN(C(=O)Oc3ccccc3Cl)C[C@@H]2c2cc(C)c(OC(C)(C)C(=O)O)c(C)c2)cc1 (mixture of isomers)",
    "Emax": "80 to 100%"
  },
  {
    "MOLECULE": "CSc1ccc(C(=O)[C@@H]2CN(C(=O)Oc3ccc(C(C)C)cc3)C[C@H]2c2cc(C)c(OC(C)(C)C(=O)O)c(C)c2)cc1 (single isomer, unassigned)",
    "Emax": "80 to 100%"
  },
  {
    "MOLECULE": "COC(=O)N1CC(Cc2ccc(SC)cc2)C(c2cc(C)c(OC(C)(C)C(=O)O)c(C)c2)C1 (single isomer, unassigned)",
    "Emax": "< 50%"
  },
  {
    "MOLECULE": "Cc1cc(CCC2CN(C(=O)Oc3ccccc3)CC2C(=O)c2ccc(F)cc2)cc(C)c1OC(C)(C)C(=O)O (single isomer, unassigned)",
    "Emax": "80 to 100%"
  },
  {
    "MOLECULE": "CSc1ccc(C(=O)[C@@H]2CN(C(C)=O)C[C@H]2CCc2cc(C)c(OC(C)(C)C(=O)O)c(C)c2)cc1 (racemic)",
    "Emax": "80 to 100%"
  },
  {
    "MOLECULE": "CSc1ccc(C(=O)C2CN(C(=O)Oc3ccccc3)CC2Cc2ccc(OC(C)(C)C(=O)O)c(C)c2)cc1 (single isomer, unassigned)",
    "Emax": "80 to 100%"
  },
  {
    "MOLECULE": "CSc1ccc(C(=O)C2CN(C(=O)Oc3ccc(C)cc3)CC2c2cc(C)c(OC(C)(C)C(=O)O)c(C)c2)cc1 (single isomer, unassigned)",
    "Emax": "80 to 100%"
  },
  {
    "MOLECULE": "CSc1ccc(C(=O)C2CN(C(=O)Oc3ccccc3)CC2Cc2ccc(OC(C)(C)C(=O)O)c(F)c2)cc1 (single isomer, unassigned)",
    "Emax": "80 to 100%"
  }
]

# Emax lookup, item CSc1ccc(C(=O)[C@H]2CN(C(=O)Oc3ccccc3)C[C@@H]2CCc2cc(C)c(OC(C)(C)C(=O)OC(C)C)c(C)c2)cc1 (single isomer, unassigned) < 50%

// Emax lookup, key: CSc1ccc(C(=O)C2CN(C(=O)OC3CCCC3)CC2CCc2cc(C)c(OC(C)(C)C(=O)O)c(C)c2)cc1 (single isomer, unassigned) 80 to 100%
